All values here come from ChEMBL document CHEMBL4834423.

# testSystem: S-adenosylmethionine synthase isoform type-2 (Homo sapiens, UniProt P31153)
# testDescription: Binding affinity to MAT2A (unknown origin) by surface plasmon resonance assay
# Sequence (P31153 whole entry, canonical isoform): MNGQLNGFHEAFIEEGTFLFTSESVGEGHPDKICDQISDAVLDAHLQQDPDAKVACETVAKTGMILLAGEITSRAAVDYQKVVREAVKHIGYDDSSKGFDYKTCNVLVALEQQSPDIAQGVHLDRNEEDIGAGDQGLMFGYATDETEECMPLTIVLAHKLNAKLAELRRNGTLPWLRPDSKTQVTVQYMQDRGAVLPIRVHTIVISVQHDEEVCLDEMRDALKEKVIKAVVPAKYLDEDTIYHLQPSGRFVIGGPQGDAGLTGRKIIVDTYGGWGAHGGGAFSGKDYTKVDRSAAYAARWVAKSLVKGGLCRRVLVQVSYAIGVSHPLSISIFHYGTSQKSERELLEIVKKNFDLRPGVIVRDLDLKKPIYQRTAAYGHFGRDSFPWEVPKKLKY
measurementKind: Kd (µM)
One number for each entry, in µM.

**Query** Need Kd, item "Cc1cc(=O)n2nc(-c3ccccc3)c(-c3ccccc3)c2[nH]1"
**Result** 70

----------
# testSystem: S-adenosylmethionine synthase isoform type-2 (Homo sapiens)
# testDescription: Inhibition of recombinant human MAT2A expressed in baculovirus infected Sf9 cells assessed as S-adenosyl methionine production using L-methionine as substrate incubated for 60 mins followed by substrate addition and measured after 60 mins relative to control
# Parameters: concentration or dose not given beside the values
# Sequence (P31153 whole entry, looked up, canonical isoform): as the sequence (P31153 whole entry, canonical isoform) above
# cutoff 90% applies to inhibition; >= gives met, < gives not met

- smilesRepresentation: "COc1ccc(-c2c(Nc3cc[nH]n3)[nH]c3c(-c4ccccc4)c(-c4ccccc4)nn3c2=O)cc1"
  classAssignment: "met"
- smilesRepresentation: "Cc1[nH]c2c(N3CCCCC3)c(-c3ccccc3)nn2c(=O)c1-c1ccc2ncccc2c1"
  classAssignment: "met"
- smilesRepresentation: "Cc1[nH]c2c(N3CCCCC3)c(-c3ccccc3)nn2c(=O)c1-c1cscn1"
  classAssignment: "not met"
- smilesRepresentation: "Cc1cc(=O)n2nc(-c3ccccc3)c(N3CCCCC3)c2[nH]1"
  classAssignment: "not met"

**Query** Given the entry "Cc1cc(=O)n2nc(-c3ccccc3)c(C3CCCCC3)c2[nH]1" , answer whether its inhibition meets or surpasses 90%.
**Result** not met
